- method-summary: DAX1 (NR0B1) inhibitors on StAR promoter, primary screen, cell-based, luminescence, SF-1 (NR5A1), full-length DAX-1 (AID 652010);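 note: 0% = DAX-1 cells with DMSO and 100% = cells lacking DAX-1 with DMSO; higher inhibition means more luminescence from relief of DAX-1 repression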
- study-conditions: HEK293T StAR-luciferase reporter, SF-1/DAX-1 repression relief; at 6.8 µM; active compounds read high
Among all 370,000 compounds or so, about 4,100 (1.1%) were called active. For the sample, actives were picked, then their nearest neighbours and some compounds at random.
property-label: inhibition (%)

1) CCCCNc1cccc2c1S(=O)(=O)N[C@@H](C)CO2 : -0.56
2) CC(c1c[nH]c2ccccc12)c1c(-c2ccccc2)n(C)c2ccccc12 (configuration not stated) : -0.37
3) CC(C)(C)C1CCC(=NNC(=O)c2ccc(Br)o2)CC1 (configuration not stated) : 2.87
4) O=C(Nc1ccccc1)Nc1nnc(COc2ccccc2F)s1 : 0.16
5) CC1CCN(C(=S)c2ccc(-c3ccc(Cl)cc3Cl)o2)CC1 : 0.67
6) O=S1(=O)c2c(NCc3ccco3)cccc2Oc2ccccc2CN1Cc1cn(Cc2cccc(C(F)(F)F)c2)nn1 : -0.91
7) CC(CCN1CCC(C(O)(c2ccccc2)c2ccccc2)CC1)Oc1ccc(Cl)cc1 (configuration not stated) : 0.18
8) COC(=O)C1=C(C)N(Cc2cccc(C(F)(F)F)c2)C(=NCc2ccccc2)NC1c1ccccc1C(F)(F)F (configuration not stated) : -0.23
9) O=C(NC(=S)Nc1ccccc1C(=O)O)c1ccc(-c2ccc(Br)cc2)o1 : -0.57
10) COc1ccc2cc(CCl)c(Cl)nc2c1 : -0.14
11) Cc1cc(=O)[nH]c(SCC(=O)Nc2ccc(Cl)cc2C)n1 : 0.86
12) COc1ccc2nc(-c3ccccn3)ccc2c1 : 15.7
13) CN(C)CCN(C(=O)CN1C(=O)c2ccccc2C1=O)c1nc2cc3c(cc2s1)OCCO3 : 4.33
14) COc1ccccc1N(C)S(=O)(=O)c1ccc(C(=O)NC2CCCCCC2)cc1 : -0.26
15) CCC(C)(C)C1CCC(=NNC(=O)c2ccc(Br)o2)CC1 (configuration not stated) : 1.82
16) CCOC(=O)c1oc2c(CN3CCN(CCO)CC3)c(O)c(CC)cc2c(=O)c1-c1nc2ccccc2s1 : 0
17) COc1ccc(CSc2nnc(SCC(=O)Nc3ccccc3C(F)(F)F)s2)cc1 : -1.27
18) O=C(N/N=C\C1CC=CCC1)c1ccc(Br)o1 (configuration not stated) : 8.53
19) O=C(Cn1c(=O)sc2ccccc21)Nc1ccc2c(c1)OCCO2 : -1.14
20) COc1ccc(C=C(C#N)C#N)c(CSc2ccccn2)c1 : -0.31
21) COc1ccc(CN(CCN2CCOCC2)C(=O)c2ccc(C)cc2)cc1OC : 1.29
22) COC(=O)[C@]12C[C@H](CC(=O)NCc3ccccc3)C(=O)N(Cc3ccccc3)C1=C[C@H](COCc1ccccc1)O[C@@H]2C : -0.43
